# measured target: von Willebrand factor full length (Homo sapiens, UniProt P04275 SEQ:764-2813)
# procedure text: filter; 36% bound at 100 nM vWF
# measurement conditions: tags: Calbiochem 681300; label: 5'-32P
endpoint label: pKd
API: returns pKd as number; meaning -log10 of concentration in mol/L.

Suppose we examine the binder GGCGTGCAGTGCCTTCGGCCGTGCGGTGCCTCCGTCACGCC (ssDNA) [ARC1115] ; what pKd value has been reported?
8.70

src = patent US20060264369
